Kindly state cytotoxicity at 70.5 h for each of the entries shown.
assay: Human HepG2 cell viability assay in 384 well format; format: toxicity, cell-based; parameters: dose 125 nL, time 70.5 hour; concentration not given beside the values; details: HepG2 cells, read-out: Inhibition
Field: numeric (%). Do not append units.

Form: molecule = `O=C(c1cc2c(s1)CCCCC2)N1CCC(c2ncc[nH]2)CC1` ; cytotoxicity at 70.5 h = 1.98

Recorded cytotoxicity at 70.5 h (molecule `COc1ccc(CN2CC[C@H]3CO[C@H](CNC(=O)N(C)C)[C@H]3C2)cc1` ): -7.9

Item: CN(CC1CCCCO1)S(=O)(=O)c1cccc(C(=O)N2CCOCC2)c1 (stereo not drawn) | cytotoxicity at 70.5 h: -10.5

Reported cytotoxicity at 70.5 h of O=c1n(CC2COCCO2)nc(CC2CCNCC2)n1-c1ccccc1 (stereo not drawn) : -3.66

So for `CN(CCC1CCOCC1)[C@@H]1c2ccccc2C2(CCNCC2)[C@H]1O` , the logged cytotoxicity at 70.5 h turned out to be -4.06

cytotoxicity at 70.5 h measured on CCCS(=O)(=O)N1CCC2(CN(c3ccccc3)C(=O)CN2C)C1 (stereo not drawn) = -87.7

Lab note: measured cytotoxicity at 70.5 h of Cc1cc(C)n(C2CN(CC(O)Cn3cccn3)C2)n1 (stereo not drawn) was 7.73

According to the records, this molecule `CN(C)C(=O)c1cc2ncc(C(=O)NC3CC3)cc2n1C` displays cytotoxicity at 70.5 h of -1.06

CCOC(=O)N1CC(=O)N(Cc2cccc(OC)c2OC)CC(O)C1 (stereo not drawn) has a reported cytotoxicity at 70.5 h of -5.06

GET /value?item= OC(COc1ccccc1Br)COC1CCOCC1 (stereo not drawn) &field=cytotoxicity at 70.5 h returns 0.581

// cytotoxicity at 70.5 h value for c1ccc(Cn2cccn2)c(CNCC2CNc3ccnn3C2)c1 (stereo not drawn) : -11.7

The recorded cytotoxicity at 70.5 h for entry `CCOc1ccc(NC(=O)N(CCC#N)Cc2ccccn2)cc1F` equals 12

Given item `CS(=O)(=O)N1CCN(CC(=O)Nc2cccc(Cl)c2)CC1` , the value recorded as its cytotoxicity at 70.5 h is 5.96

The value of cytotoxicity at 70.5 h measured for the molecule `Cc1nccn1CCN(C)c1nc(-c2cccnc2)nc2c1CCNC2` turned out to be -3.49

The reported cytotoxicity at 70.5 h of the molecule CN(Cc1nc(COc2ccccc2)no1)CC1Cc2ccccc2O1 (stereo not drawn) was -3.44

Data point: `NC(=O)c1cc2c(nc1CCOCc1ccccc1)CCC2` ; cytotoxicity at 70.5 h = -8.58

Sample `Cc1ccc([C@@H]2CN(C(=O)c3cc[nH]c3)C[C@H]2NC(=O)C2CC2)cc1` ; cytotoxicity at 70.5 h observed: -10.7

Per the records, this molecule ( `Cc1cccc(CN2CC[C@@H]3[C@@H]2CCN3Cc2cccs2)n1` ) has cytotoxicity at 70.5 h equal to -5.52

# cytotoxicity at 70.5 h (molecule: `CC(C)(C)c1nc(CN2CCC(N3CCCCC3)CC2)no1` ) is -2.12

For `CCC(=O)NCCc1cc2nc(-c3ccncc3)ccn2n1` the molecule record lists cytotoxicity at 70.5 h as -5.77

Looking up `CC(C)c1ncc(CN2C[C@@H](CN3CCCCC3)[C@@H](CO)C2)cn1` , I see its cytotoxicity at 70.5 h listed as -2.58

Value of cytotoxicity at 70.5 h reported for the molecule `COc1cccc(S(=O)(=O)CCNCCn2cccn2)c1` is -10.6

Reported cytotoxicity at 70.5 h ( Cc1ccc(CNCc2nnc3n2CCCC3C(F)(F)F)s1 (stereo not drawn) ) = -10.1

----------
assay: Human HepG2 cell viability assay in 384 well format; assay type: toxicity, cell-based; design: dose 125 nL, time 70.5 hour; concentration not given beside the values; details: HepG2 cells, read-out: Inhibition
Answer each item with its documented cytotoxicity at 70.5 h.
Don't forget the unit after the value.

For reference, reported cytotoxicity at 70.5 h for Cn1cc(-c2nc(CN3CCOC(Cn4cccn4)C3)cs2)cn1 (configuration not stated) stands at -5.18%

Record summary for O=C(c1cccnc1)N1CCc2ncnc(C3CCOC3)c2CC1 (configuration not stated) : reported cytotoxicity at 70.5 h = -7.71%

Lab book: cytotoxicity at 70.5 h of `Cc1ccc(C)c(NC(=O)Cn2nc(C)c(C#N)c2N)c1` noted as -10.2%

Noted for CCc1nc(CC(=O)NC(C#N)CC(C)C)cs1 (configuration not stated) : its cytotoxicity at 70.5 h reads -0.177%

Looking up `O=C(Cn1ccc2ccccc21)NCc1cc(N2CCOCC2)ncn1` , I found its cytotoxicity at 70.5 h recorded as -1.81%

The value of cytotoxicity at 70.5 h measured for the molecule CCOCCC(=O)Nc1cc(C(N)=O)ccc1N1CCCC(C)C1 (configuration not stated) turned out to be -2.01%

The recorded cytotoxicity at 70.5 h for `O=c1[nH]c(CCN2CCN(CC(F)(F)F)CC2)nc2ccccc12` is -4.17%

For reference, reported cytotoxicity at 70.5 h for `COCCN1C[C@@H](C)[C@@]2(COCCN(C(=O)Cc3ccccc3)C2)C1` stands at -23%

The recorded cytotoxicity at 70.5 h for Cn1c(CN2CCOC(CNc3cccnn3)C2)nnc1C1CC1 (configuration not stated) is -2.31%

molecule CC(=O)N1CCCCC1c1nc2c(c(NC3CCCC3)n1)CN(C)CC2 (configuration not stated) , cytotoxicity at 70.5 h observed: 17%

// cytotoxicity at 70.5 h value for CCCN1CCCC1Cn1nc(C)cc1C (configuration not stated) : -3.07%

`CCCN(CCOC)c1nc(C)nc2sccc12` yielded cytotoxicity at 70.5 h of 13.4%

----------
Give measured cytotoxicity at 70.5 h for each item. Keep answers brief.
test: Human HepG2 cell viability assay in 384 well format; assay type: toxicity, cell-based; design: dose 125 nL, time 70.5 hour; concentration not given beside the values; settings: HepG2 cells, read-out: Inhibition
Just the number please, in %, no unit attached.

Entry `c1cc2c(cc1CN1C[C@@H]3COC[C@@H](N4CCCC4)[C@@H]3C1)OCO2` ; cytotoxicity at 70.5 h = -6.89

Per the records, this compound ( CCc1cc(CNC(=O)N(C2CC2)C(C)c2ccco2)[nH]n1 (stereo unspecified) ) has cytotoxicity at 70.5 h equal to -5.28

Briefly, cytotoxicity at 70.5 h measured for CN(C(=O)Cc1ccn(C)c1)C1CCCN(C2Cc3ccccc3C2)C1 (stereo unspecified) : 1.52

Note to self: cytotoxicity at 70.5 h recorded for `c1ncc2c(n1)CN(Cc1cn3ccsc3n1)CC2` was -4.44

Reported cytotoxicity at 70.5 h of `CCCNCc1ccc(OCc2ccc3c(c2)OCCO3)cc1` : 33.3

// field: cytotoxicity at 70.5 h; key: `C/C(NC(=O)c1ccccn1)=C1\C(=O)C[C@@H]2[C@H]1C2(C)C` ; value = -2.07

In plain terms, CNc1ccc(C2CN(c3cc(C)ncn3)CCO2)nc1 (stereo unspecified) has a documented cytotoxicity at 70.5 h of 1.5

Entry Cc1nocc1C(=O)N1CCCC2(CCN(c3cnn(C)c3)C2=O)C1 (stereo unspecified) , cytotoxicity at 70.5 h reported as -3.71

The compound listed as `CN(CC(=O)N1CCC(COc2ccccc2)CC1)c1cnccn1` has a reported cytotoxicity at 70.5 h of -0.223

Per the records, this compound ( `CCN1CCOCC12CCN(c1nccs1)CC2` ) has cytotoxicity at 70.5 h equal to -13.5

// cytotoxicity at 70.5 h value for CN(C)CC(=O)N1CCCC1c1ccccn1 (stereo unspecified) : -3.81

----------
experiment: Human HepG2 cell viability assay in 384 well format; format: toxicity, cell-based; design: dose 125 nL, time 70.5 hour; concentration not given beside the values; settings: HepG2 cells, read-out: Inhibition
REPORTED PROPERTY: cytotoxicity at 70.5 h (%)
Field format: number, assumed %, no unit text.

So, `O=C(c1ccsc1)N1C[C@H]2CN(Cc3cccnc3)C(=O)[C@H]2C1` ? Its cytotoxicity at 70.5 h was 4.1

Documented cytotoxicity at 70.5 h of Cc1n[nH]c(C2CN(CCCOc3ccc(F)cc3)CCO2)n1 (configuration not stated) : -12.3

Please fill in: cytotoxicity at 70.5 h reported for `Cn1ccnc1CN1CCN(CC(=O)NCc2cccs2)CC1` = 13.9

Lab book: cytotoxicity at 70.5 h of Cc1noc(CN2CCOC(CN(C)C)C2)n1 (configuration not stated) noted as 70.1

For record Cc1nc(COc2ccc(CNCC3CN(C)CCO3)cc2)cs1 (configuration not stated) the listed cytotoxicity at 70.5 h is 20.1

get_value(item= CCN(CC(C)O)C(=O)Nc1cnn(CCOC)c1 (configuration not stated) , readout=cytotoxicity at 70.5 h) returns 6.07

Lookup result for O=C(CCN1CCCC1c1cccc2c1OCCO2)N1CCCCC1 (configuration not stated) ; measured cytotoxicity at 70.5 h: -6.86

cytotoxicity at 70.5 h recorded for this compound, `O=C(c1cnccn1)N1C[C@@H]2CCN(c3cnccn3)C[C@@H]2C1` , is -7.66

For `COc1ccc(N2CCN(C(=O)c3cc(=O)c(OC)c[nH]3)CC2)cc1` the compound record lists cytotoxicity at 70.5 h as -6.09

Lab note: measured cytotoxicity at 70.5 h of `Cc1occc1C(=O)N1CCc2c(CNS(C)(=O)=O)cncc2C1` was -20.9

For reference, reported cytotoxicity at 70.5 h for Cc1ccc(N2CCCC(NCc3sccc3C)C2)nn1 (configuration not stated) stands at -7.95

// sample `COc1nn(C)c2c1CCCN(C(=O)COc1ccccc1)C2` , its cytotoxicity at 70.5 h was -104

What the record says about Cc1c(CNC(=O)c2cn(CCC3CCCCN3)nn2)cnn1C (configuration not stated) : cytotoxicity at 70.5 h is -1.47

Lab note: CN(Cc1cn2c(n1)CN(C1CCOC1)CC2)Cc1ccco1 (configuration not stated) gave cytotoxicity at 70.5 h of -8.22

# cytotoxicity at 70.5 h (compound: CCn1nnc2c1C(COCC(=O)N(C)C)CN(Cc1ccco1)C2 (configuration not stated) ) is 10.6

Field cytotoxicity at 70.5 h (entry `COc1ccc(-c2n[nH]cc2CNC2CCN(C3CC3)CC2)cc1` ) reads -2.67

# compound `c1cncc(CN2C[C@H]3CCC[C@@H](CNc4cnccn4)[C@H]3C2)c1` ; its cytotoxicity at 70.5 h = -4.05

// field: cytotoxicity at 70.5 h; key: `Cc1nn2c(N3CCC(O)CC3)cc(-c3ccccc3)nc2c1C` ; value = -3.29

Query `Cn1c(CNc2c(F)cccc2-n2cccn2)cc(=O)n(C)c1=O` yields cytotoxicity at 70.5 h of 0.334

Notebook: `Cc1[nH]ncc1CCCNC(=O)Nc1ccc(F)cc1` , cytotoxicity at 70.5 h read as 3.38

Per the records, this compound ( `CCCOc1cc(C)ccc1NC(=O)NCCNC(C)=O` ) has cytotoxicity at 70.5 h equal to 3.53

Looking up CC(=O)N(Cc1ncc(C(C)C)o1)C1CCN(CC2CCC2)C1 (configuration not stated) , I see its cytotoxicity at 70.5 h listed as -3.28

Lab book: cytotoxicity at 70.5 h of Cc1noc(C)c1CN(C)C(=O)NC(C)c1cccs1 (configuration not stated) noted as 7.59

Form: compound = CCn1ccnc1CN1CCCC(CO)(Cc2cccc(OC)c2)C1 (configuration not stated) ; cytotoxicity at 70.5 h = -14.1

For reference, reported cytotoxicity at 70.5 h for `CCc1ccc(NC(=O)c2n[nH]c(-n3cnnc3)n2)cc1` stands at -6.66

response.value for `COCCNC(=O)c1cccnc1Oc1ccc(Cl)cc1` (field: cytotoxicity at 70.5 h) = -7.58

Sure, the documented cytotoxicity at 70.5 h for O=C(CN1CCCCCC1)N1CCc2nnc(C3CCCNC3)n2CC1 (configuration not stated) is 16

The measured cytotoxicity at 70.5 h associated with Cc1cn2c(n1)CCC(NC(=O)c1cncnc1C)C2 (configuration not stated) reads -5.83

// cytotoxicity at 70.5 h lookup, compound = CC(C)CCNC(=O)C1CCCN1C(=O)Nc1cccc(F)c1 (configuration not stated) , result: -6.59

Per the record, Cn1cc(CN2CCc3ncnc(C4CCOC4)c3CC2)cn1 (configuration not stated) has cytotoxicity at 70.5 h of 6

Input `O=C(CC(F)(F)F)N1C[C@H]2CN(CC3CC3)C(=O)[C@H]2C1` . Output cytotoxicity at 70.5 h: -5.1

// recorded cytotoxicity at 70.5 h for `CNC(=O)CS(=O)(=O)C1CCN(S(=O)(=O)c2ccccc2Br)CC1` : -8.95

Lab note: `CC(C)c1nccn1CCCNC(=O)c1ccc(-c2cnn(C)c2)nc1` gave cytotoxicity at 70.5 h of -5.24

`OCCN(Cc1cccnc1)c1cnc2ccccc2n1` has a reported cytotoxicity at 70.5 h of -4.32

Memo: `O=C1N(c2ccc(F)cc2)Cc2n[nH]c(=O)n21` , reported cytotoxicity at 70.5 h: -2.51

For record `Cc1cc(C(=O)N2CCc3c(CN(C)C)nn(C)c3C2)[nH]n1` the listed cytotoxicity at 70.5 h is -12.8

Kindly note the recorded cytotoxicity at 70.5 h for `COC(=O)c1cc(NCC(=O)NC(N)=O)cc(C(F)(F)F)c1` , which is 0.625

Short answer for CCCS(=O)(=O)CCN1CCOC(c2ccsc2)C1 (configuration not stated) : cytotoxicity at 70.5 h was -2.47

Looking up `CNC(=O)CN1CC[C@H]2CN(C(=O)c3ccoc3)C[C@H]2C1` , I see its cytotoxicity at 70.5 h listed as -4.77

Recorded cytotoxicity at 70.5 h (compound `CCc1cnc(C)nc1NCc1nc(COC)no1` ): -6.43

Notebook: `Cc1ccccc1CC(=O)N1C[C@@H]2COC[C@]2(CN(C)C)C1` , cytotoxicity at 70.5 h read as -6.68

So for COc1c(C2CCCN2C(=O)c2sccc2C#N)c(C)nn1C (configuration not stated) , the logged cytotoxicity at 70.5 h turned out to be -5.44

Entry `CC(=O)N1CCN(c2cncc(C3CCNCC3)n2)CC1` — recorded cytotoxicity at 70.5 h = 34.1

Form field cytotoxicity at 70.5 h, entry O=C(NC1CCS(=O)(=O)C1)c1cn(C2CC2)c(=O)c2ccccc12 (configuration not stated) : -14.3

`Cc1cccc(CN2CC[C@@H]3O[C@@H](C(=O)N4CCN(C)CC4)C[C@@H]32)c1` yielded cytotoxicity at 70.5 h of -6.66

Form: compound = `Cc1noc(C)c1-c1n[nH]c2c1CN(S(=O)(=O)c1ccsc1)CC2` ; cytotoxicity at 70.5 h = 15.3

Note to self: cytotoxicity at 70.5 h recorded for CCc1ccc(CN2CCCC(c3nn(C)c(=O)n3CC)C2)nc1 (configuration not stated) was -9.19

src = ChEMBL document CHEMBL3507680
